Tested on: GFP-14-3-3β and its binding proteins
Test: GFP-14-3-3β co-IP with LC-MS/MS label-free quantification, untreated versus PP1c-treated
Parameters: species or system human
Conditions: pairwise comparison PP1 vs untreated
ASSAY_ENDPOINT: Difference (log2), PP1 vs untreated

Which Difference (log2), PP1 vs untreated is reported for this molecule? TMOD3 (protein, UniProt Q9NYL9 1-352, looked up) Tropomodulin-3: MALPFRKDLEKYKDLDEDELLGNLSETELKQLETVLDDLDPENALLPAGFRQKNQTSKSTTGPFDREHLLSYLEKEALEHKDREDYVPYTGEKKGKIFIPKQKPVQTFTEEKVSLDPELEEALTSASDTELCDLAAILGMHNLITNTKFCNIMGSSNGVDQEHFSNVVKGEKILPVFDEPPNPTNVEESLKRTKENDAHLVEVNLNNIKNIPIPTLKDFAKALETNTHVKCFSLAATRSNDPVATAFAEMLKVNKTLKSLNVESNFITGVGILALIDALRDNETLAELKIDNQRQQLGTAVELEMAKMLEENTNILKFGYQFTQQGPRTRAANAITKNNDLVRKRRVEGDHQ -0.1127 log2
